# Papp A→B per record follows
- measurement.protocol: MPR1-MDCK permeability, potential to cross the blood-brain barrier
- Assay type: in vitro ADME
- measurement.conditions: dog, MDCK; A-B direction
Dear colleague, please send the value followed by its unit.

Exam item: I would be grateful if you could share the reported Papp A→B for OCCN1CCN(CCCN2c3ccccc3Sc3ccc(C(F)(F)F)cc32)CC1 [ICI-01175, Fluphenazine, reference compound] .
Marked response: 8.7 ×10⁻⁶ cm/s

Exam item: I would be grateful if you could share the reported Papp A→B for NCC(=O)NCCN1CCN(CCCN2c3ccccc3Sc3ccc(C(F)(F)F)cc32)CC1 [ICI-735] .
Marked response: 0.23 ×10⁻⁶ cm/s

---

- Tested on: MPR1-MDCK
- measurement.protocol: MPR1-MDCK permeability, potential to cross the blood-brain barrier
- Assay type: in vitro ADME
- measurement.conditions: A-B direction
Returns: string. Value is class 1 if measured % Recovery A-B is below 50%, and class 0 if it is greater than or equal to it.

Previously resolved entries follow.
Exam item: Consider CN(C)CCCN1CCC(CCCN2c3ccccc3Sc3ccc(C(F)(F)F)cc32)CC1 [ICI-01505] . Does its % Recovery A-B lie strictly below 50%?
Marked response: class 1

Exam item: Consider FC(F)(F)c1ccc2c(c1)N(CCCN1CCNCC1)c1ccccc1S2 [ICI-00685] . Does its % Recovery A-B lie strictly below 50%?
Marked response: class 1

Exam item: Consider CC(=O)NCCN1CCC(CCCN2c3ccccc3Sc3ccc(C(F)(F)F)cc32)CC1 [ICI-00850] . Does its % Recovery A-B lie strictly below 50%?
Marked response: class 1

Continuing:
Exam item: Consider NCCCN1CCN(CCCN2c3ccccc3Sc3ccc(C(F)(F)F)cc32)CC1 [ICI-00760] . Does its % Recovery A-B lie strictly below 50%?
Marked response: class 1

Exam item: Consider CNCC(=O)NCCN1CCC(CCCN2c3ccccc3Sc3ccc(C(F)(F)F)cc32)CC1 [ICI-00849] . Does its % Recovery A-B lie strictly below 50%?
Marked response: class 1

Exam item: Consider CNCC(=O)NCCCN1CCN(CCCN2c3ccccc3Sc3ccc(C(F)(F)F)cc32)CC1 [ICI-00823] . Does its % Recovery A-B lie strictly below 50%?
Marked response: class 0

---

- study.target: Nav1.5 (Homo sapiens, UniProt Q14524)
- Sequence (Q14524 whole entry): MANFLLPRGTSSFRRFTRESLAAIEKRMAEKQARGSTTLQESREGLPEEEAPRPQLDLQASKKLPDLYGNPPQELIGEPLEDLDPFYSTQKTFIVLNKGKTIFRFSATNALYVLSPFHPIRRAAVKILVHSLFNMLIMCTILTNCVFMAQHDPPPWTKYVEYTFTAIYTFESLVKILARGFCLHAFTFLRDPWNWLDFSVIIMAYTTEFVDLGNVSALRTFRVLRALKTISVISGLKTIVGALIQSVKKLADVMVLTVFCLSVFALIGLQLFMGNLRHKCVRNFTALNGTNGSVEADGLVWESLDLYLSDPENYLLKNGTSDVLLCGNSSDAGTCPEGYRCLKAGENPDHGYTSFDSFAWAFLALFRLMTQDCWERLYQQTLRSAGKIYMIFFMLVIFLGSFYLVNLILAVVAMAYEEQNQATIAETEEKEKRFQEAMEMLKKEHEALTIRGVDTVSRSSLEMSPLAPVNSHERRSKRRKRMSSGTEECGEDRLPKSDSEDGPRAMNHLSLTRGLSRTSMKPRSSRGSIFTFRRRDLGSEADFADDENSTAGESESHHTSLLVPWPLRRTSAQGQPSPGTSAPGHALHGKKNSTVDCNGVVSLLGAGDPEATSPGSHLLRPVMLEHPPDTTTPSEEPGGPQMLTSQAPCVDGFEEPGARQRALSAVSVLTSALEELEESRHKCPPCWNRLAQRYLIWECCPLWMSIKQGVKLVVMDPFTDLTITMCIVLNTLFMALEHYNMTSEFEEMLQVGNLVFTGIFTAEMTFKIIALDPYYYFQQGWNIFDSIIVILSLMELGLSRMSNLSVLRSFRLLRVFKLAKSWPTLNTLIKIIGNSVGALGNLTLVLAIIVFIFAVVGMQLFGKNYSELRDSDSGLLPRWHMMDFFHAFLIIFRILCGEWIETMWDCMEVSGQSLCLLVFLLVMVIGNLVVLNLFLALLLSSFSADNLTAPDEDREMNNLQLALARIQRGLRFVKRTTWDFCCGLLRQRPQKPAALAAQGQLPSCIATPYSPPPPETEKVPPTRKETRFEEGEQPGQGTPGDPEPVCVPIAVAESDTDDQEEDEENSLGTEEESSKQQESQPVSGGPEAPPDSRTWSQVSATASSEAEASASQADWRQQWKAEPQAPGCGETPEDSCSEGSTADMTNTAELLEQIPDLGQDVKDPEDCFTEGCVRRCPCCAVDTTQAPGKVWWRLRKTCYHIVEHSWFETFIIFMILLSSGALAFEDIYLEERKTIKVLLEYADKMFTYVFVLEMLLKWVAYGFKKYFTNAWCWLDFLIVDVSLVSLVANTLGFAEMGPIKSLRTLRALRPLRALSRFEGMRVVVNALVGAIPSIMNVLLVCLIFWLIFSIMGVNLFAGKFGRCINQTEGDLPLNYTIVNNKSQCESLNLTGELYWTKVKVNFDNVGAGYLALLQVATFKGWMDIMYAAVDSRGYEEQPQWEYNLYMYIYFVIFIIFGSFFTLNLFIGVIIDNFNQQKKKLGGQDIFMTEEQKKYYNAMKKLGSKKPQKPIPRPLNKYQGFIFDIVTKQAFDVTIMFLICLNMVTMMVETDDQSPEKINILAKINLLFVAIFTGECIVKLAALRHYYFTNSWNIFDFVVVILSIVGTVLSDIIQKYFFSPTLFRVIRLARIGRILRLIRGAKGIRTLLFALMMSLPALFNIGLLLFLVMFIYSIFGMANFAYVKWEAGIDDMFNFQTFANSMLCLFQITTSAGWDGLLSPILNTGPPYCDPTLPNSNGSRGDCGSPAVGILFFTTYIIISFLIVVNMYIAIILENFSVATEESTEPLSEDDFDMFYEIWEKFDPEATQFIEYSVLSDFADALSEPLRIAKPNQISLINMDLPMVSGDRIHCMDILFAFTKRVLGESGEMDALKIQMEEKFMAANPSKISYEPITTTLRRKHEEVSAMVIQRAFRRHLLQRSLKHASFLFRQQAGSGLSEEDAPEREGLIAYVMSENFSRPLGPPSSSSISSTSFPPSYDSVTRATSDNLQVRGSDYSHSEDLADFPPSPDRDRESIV
- measurement.protocol: Effects on action potential in a mammalian cell, sodium channel block
- From the text: Voltage-gated sodium channels are responsible for the initial phase of the action potential, which is a wave of electrical depolarisation usually initiated at the soma of the neuron and propagated along the nerve axon to the terminals. At the terminals, the action potential triggers the influx of calcium and the release of neurotransmitter. […]
measure: IC50 (µM)
Response body: numeric value in µM, unit text excluded.

Exam item: Param readout= IC50; system= Nav1.5 (Homo sapiens, UniProt Q14524); entry= "NCC(=O)NCCN1CCN(CCCN2c3ccccc3Sc3ccc(C(F)(F)F)cc32)CC1" ; returns value.
Marked response: 8.33

---

- Test system: MPR1-MDCK
- measurement.protocol: MPR1-MDCK permeability, potential to cross the blood-brain barrier
- Type: in vitro ADME
- measurement.conditions: A-B direction
# Papp A-B per record follows
Response body: numeric value in ×10⁻⁶ cm/s, unit text excluded.

Example molecules with recorded Papp A-B:
Exam item: I would be grateful if you could share the reported Papp A-B for "NCC(=O)NCCCN1CCN(CCCN2c3ccccc3Sc3ccc(C(F)(F)F)cc32)CC1" .
Marked response: 0.13

Exam item: I would be grateful if you could share the reported Papp A-B for "NCCCN1CCC(CCCN2c3ccccc3Sc3ccc(C(F)(F)F)cc32)CC1" .
Marked response: 0.56

Continuing:
Exam item: I would be grateful if you could share the reported Papp A-B for "NCC(=O)NCCCN1CCC(CCCN2c3ccccc3Sc3ccc(C(F)(F)F)cc32)CC1" .
Marked response: 0.32

Exam item: I would be grateful if you could share the reported Papp A-B for "FC(F)(F)c1ccc2c(c1)N(CCCCN1CCNCC1)c1ccccc1S2" .
Marked response: 0.75

Exam item: I would be grateful if you could share the reported Papp A-B for "CN(C)S(=O)(=O)c1ccc2c(c1)N(CCCN1CCN(CCN)CC1)c1ccccc1S2" .
Marked response: 0.08

Exam item: I would be grateful if you could share the reported Papp A-B for "FC(F)(F)c1ccc2c(c1)N(CCCC1CCNCC1)c1ccccc1S2" .
Marked response: 1.77

Exam item: I would be grateful if you could share the reported Papp A-B for "CC(=O)NCCN1CCC(CCCN2c3ccccc3Sc3ccc(C(F)(F)F)cc32)CC1" .
Marked response: 0.94

Exam item: I would be grateful if you could share the reported Papp A-B for "N#Cc1ccc2c(c1)N(CCCN1CCN(CCN)CC1)c1ccccc1S2" .
Marked response: 0.22

Exam item: I would be grateful if you could share the reported Papp A-B for "NCC(=O)NCCN1CCC(CCCN2c3ccccc3Sc3ccc(C(F)(F)F)cc32)CC1" .
Marked response: 0.24

---

- System: MPR1-MDCK
- measurement.protocol: MPR1-MDCK permeability, potential to cross the blood-brain barrier
- Type: in vitro ADME
- measurement.conditions: B-A direction
Returns: string. Value is fulfilled if measured Papp B-A is below 10 ×10⁻⁶ cm/s, and not fulfilled if it is greater than or equal to it.

Exam item: Consider CN(C)S(=O)(=O)c1ccc2c(c1)N(CCCN1CCN(CCN)CC1)c1ccccc1S2 [ICI-00715] . Does its Papp B-A lie strictly below 10 ×10⁻⁶ cm/s?
Marked response: not fulfilled

Exam item: Consider CN(C)CCCN1CCC(CCCN2c3ccccc3Sc3ccc(C(F)(F)F)cc32)CC1 [ICI-01505] . Does its Papp B-A lie strictly below 10 ×10⁻⁶ cm/s?
Marked response: fulfilled

Exam item: Consider NCCN1CCC(CCCN2c3ccccc3Sc3ccc(C(F)(F)F)cc32)CC1 [ICI-00846] . Does its Papp B-A lie strictly below 10 ×10⁻⁶ cm/s?
Marked response: fulfilled

Exam item: Consider CNCC(=O)NCCN1CCC(CCCN2c3ccccc3Sc3ccc(C(F)(F)F)cc32)CC1 [ICI-00849] . Does its Papp B-A lie strictly below 10 ×10⁻⁶ cm/s?
Marked response: fulfilled

---

- measurement.protocol: MPR1-MDCK permeability, potential to cross the blood-brain barrier
- Assay type: in vitro ADME
- measurement.conditions: dog, MDCK; B-A direction; read-out: % Recovery B-A
measure: recovery
Dear colleague, please send the value followed by its unit.

Exam item: I would be grateful if you could share the reported recovery for NCC(=O)NCCN1CCN(CCCN2c3ccccc3Sc3ccc(C(F)(F)F)cc32)CC1 [ICI-735] .
Marked response: 33%

Continuing:
Exam item: I would be grateful if you could share the reported recovery for OCCN1CCN(CCCN2c3ccccc3Sc3ccc(C(F)(F)F)cc32)CC1 [ICI-01175, Fluphenazine, reference compound] .
Marked response: 43%

---

- measurement.protocol: MPR1-MDCK permeability, potential to cross the blood-brain barrier
- Format: in vitro ADME
- measurement.conditions: dog, MDCK; A-B direction; read-out: % Recovery A-B
# recovery per record follows
Response body: numeric value in %, unit text excluded.

Exam item: I would be grateful if you could share the reported recovery for OCCN1CCN(CCCN2c3ccccc3Sc3ccc(C(F)(F)F)cc32)CC1 [ICI-01175, Fluphenazine, reference compound] .
Marked response: 24

Continue with the compound presented below.
Exam item: I would be grateful if you could share the reported recovery for NCC(=O)NCCN1CCN(CCCN2c3ccccc3Sc3ccc(C(F)(F)F)cc32)CC1 [ICI-735] .
Marked response: 47

---

- Tested on: MPR1-MDCK
- measurement.protocol: MPR1-MDCK permeability, potential to cross the blood-brain barrier
- Type: in vitro ADME
- measurement.conditions: B-A direction
# % Recovery B-A per record follows
Response body: numeric value in %, unit text excluded.

Exam item: I would be grateful if you could share the reported % Recovery B-A for CC(=O)NCCN1CCC(CCCN2c3ccccc3Sc3ccc(C(F)(F)F)cc32)CC1 [ICI-00850] .
Marked response: 9

Continuing:
Exam item: I would be grateful if you could share the reported % Recovery B-A for CNCC(=O)NCCCN1CCC(CCCN2c3ccccc3Sc3ccc(C(F)(F)F)cc32)CC1 [ICI-01259] .
Marked response: 39

Exam item: I would be grateful if you could share the reported % Recovery B-A for FC(F)(F)c1ccc2c(c1)N(CCCCN1CCNCC1)c1ccccc1S2 [ICI-00890] .
Marked response: 29

Exam item: I would be grateful if you could share the reported % Recovery B-A for CNCC(=O)NCCN1CCC(CCCN2c3ccccc3Sc3ccc(C(F)(F)F)cc32)CC1 [ICI-00849] .
Marked response: 26

Exam item: I would be grateful if you could share the reported % Recovery B-A for NCC(=O)NCCCN1CCN(CCCN2c3ccccc3Sc3ccc(C(F)(F)F)cc32)CC1 [ICI-00822] .
Marked response: 22

Exam item: I would be grateful if you could share the reported % Recovery B-A for CN(C)CCN1CCN(CCCN2c3ccccc3Sc3ccc(C(F)(F)F)cc32)CC1 [ICI-00738] .
Marked response: 40

Exam item: I would be grateful if you could share the reported % Recovery B-A for NCC(=O)NCCN1CCC(CCCN2c3ccccc3Sc3ccc(C(F)(F)F)cc32)CC1 [ICI-00848] .
Marked response: 21

Exam item: I would be grateful if you could share the reported % Recovery B-A for NCCN1CCC(CCCN2c3ccccc3Sc3ccc(C(F)(F)F)cc32)CC1 [ICI-00846] .
Marked response: 1

Exam item: I would be grateful if you could share the reported % Recovery B-A for NCCCN1CCC(CCCN2c3ccccc3Sc3ccc(C(F)(F)F)cc32)CC1 [ICI-00847] .
Marked response: 31
